experiment: clinical; details: human, in vivo, cycle 1 day 28 of dose-escalation phase, 200 mg (n=3), mean; read-out: T1/2 (converted)
Value type: half-life (h)
Answers are plain numbers, in h.

Task: Look up half-life: COc1cc(N2CCC(N3CCN(C)CC3)CC2)ccc1Nc1nc2c(c(Nc3ccccc3S(=O)(=O)NC(C)C)n1)CCN2 [Conteltinib]
Result: 42.2

---

Assay: clinical
Conditions: human, in vivo, single dose, PK lead-in phase of dose-escalation phase, 200 mg (n=3), mean
Experimental: For single-dose PK parameters, plasma samples were taken at pre-dose and 0.5 h, 1 h, 2 h, 3 h, 4 h, 6 h, 8 h, 12 h, 24 h, 48 h, 72 h, 96 h, 120 h, 144 h, and 168 h post-dose in PK lead-in phase of dose-escalation phase, and plasma samples were also taken at pre-dose and 0.5 h, 1 h, 2 h, 3 h, 4 h, 6 h, 8 h, 12 h, and 24 h post-dose in cycle 1 day 1 of dose-expansion phase. […]
Value type: AUC(0-t) (ng·h/mL)
Answers are plain numbers, in ng·h/mL.

Task: Look up AUC(0-t): COc1cc(N2CCC(N3CCN(C)CC3)CC2)ccc1Nc1nc2c(c(Nc3ccccc3S(=O)(=O)NC(C)C)n1)CCN2 [Conteltinib]
Result: 2550
